As shown below, each of these molecules has a reported melting point value.
quantity measured: melting point

[
  {
    "molecule": "CCCn1c(=O)c2[nH]c(-c3cc(C)n(CC(=O)Nc4ccc(F)cc4)n3)nc2n(CCC)c1=O",
    "val": "205 to 207 °C"
  },
  {
    "molecule": "CCCn1c(=O)c2[nH]c(-c3ccn(CC(=O)Nc4ccc(Cl)cc4)n3)nc2n(CCC)c1=O",
    "val": "283 to 285 °C"
  },
  {
    "molecule": "CCCn1c(=O)c2[nH]c(-c3cc(C)n(CC(=O)Nc4ccc(C)cc4)n3)nc2n(CCC)c1=O",
    "val": "> 300 °C"
  },
  {
    "molecule": "CCCn1c(=O)c2[nH]c(-c3cc(C)n(CC(=O)Nc4ccccc4)n3)nc2n(CCC)c1=O",
    "val": "255 to 257 °C"
  },
  {
    "molecule": "CCCn1c(=O)c2[nH]c(-c3cc(C)n(CC(=O)Nc4ccc(C)c(C)c4)n3)nc2n(CCC)c1=O",
    "val": "261 to 265 °C"
  },
  {
    "molecule": "CCCn1c(=O)c2[nH]c(-c3cc(C)n(CC(=O)Nc4ccc(N(C)C)cc4)n3)nc2n(CCC)c1=O",
    "val": "> 300 °C"
  },
  {
    "molecule": "CCCn1c(=O)c2[nH]c(-c3cc(C)n(CC(=O)Nc4cccc(OC)c4)n3)nc2n(CCC)c1=O",
    "val": "274 to 277 °C"
  },
  {
    "molecule": "CCCn1c(=O)c2[nH]c(-c3cc(C)n(CC(=O)Nc4ccc(Br)cc4)n3)nc2n(CCC)c1=O",
    "val": "270 to 273 °C"
  },
  {
    "molecule": "CCCn1c(=O)c2[nH]c(-c3cc(C)n(CC(=O)Nc4ccc(C(C)CC)cc4)n3)nc2n(CCC)c1=O (stereo not drawn)",
    "val": "268 to 271 °C"
  },
  {
    "molecule": "CCCn1c(=O)c2[nH]c(-c3nn(CC(=O)Nc4ccc(Cl)cc4)c(C)c3I)nc2n(CCC)c1=O",
    "val": "296 to 297 °C"
  },
  {
    "molecule": "CCCn1c(=O)c2[nH]c(-c3cc(C)n(CC(=O)Nc4cccc(Cl)c4)n3)nc2n(CCC)c1=O",
    "val": "304 to 307 °C"
  },
  {
    "molecule": "CCCn1c(=O)c2[nH]c(-c3nn(CC(=O)Nc4ccc(Cl)cc4)c(C)c3Br)nc2n(CCC)c1=O",
    "val": "298 to 299 °C"
  },
  {
    "molecule": "CCCn1c(=O)c2[nH]c(-c3cc(C)n(CC(=O)Nc4ccc(OC)c(OC)c4)n3)nc2n(CCC)c1=O",
    "val": "285 to 290 °C"
  },
  {
    "molecule": "CCCn1c(=O)c2[nH]c(-c3cc(CC)n(CC(=O)Nc4ccc(Cl)cc4)n3)nc2n(CCC)c1=O",
    "val": "256 to 257 °C"
  },
  {
    "molecule": "CCCn1c(=O)c2[nH]c(-c3cc(C)n(CC(=O)Nc4ccc(Cl)c(Cl)c4)n3)nc2n(CCC)c1=O",
    "val": "298 °C"
  }
]
